target: BTK in mouse bone marrow (Mus musculus (Mouse), UniProt P35991); assay: Mouse Bone Marrow Assay (MSD ELISA of BTK degradation in bone marrow); assay type: in vivo; details: female C57BL/6J mice, single dose of Dose A, bone marrow collected after 24 hours
Sequence (P35991 whole entry): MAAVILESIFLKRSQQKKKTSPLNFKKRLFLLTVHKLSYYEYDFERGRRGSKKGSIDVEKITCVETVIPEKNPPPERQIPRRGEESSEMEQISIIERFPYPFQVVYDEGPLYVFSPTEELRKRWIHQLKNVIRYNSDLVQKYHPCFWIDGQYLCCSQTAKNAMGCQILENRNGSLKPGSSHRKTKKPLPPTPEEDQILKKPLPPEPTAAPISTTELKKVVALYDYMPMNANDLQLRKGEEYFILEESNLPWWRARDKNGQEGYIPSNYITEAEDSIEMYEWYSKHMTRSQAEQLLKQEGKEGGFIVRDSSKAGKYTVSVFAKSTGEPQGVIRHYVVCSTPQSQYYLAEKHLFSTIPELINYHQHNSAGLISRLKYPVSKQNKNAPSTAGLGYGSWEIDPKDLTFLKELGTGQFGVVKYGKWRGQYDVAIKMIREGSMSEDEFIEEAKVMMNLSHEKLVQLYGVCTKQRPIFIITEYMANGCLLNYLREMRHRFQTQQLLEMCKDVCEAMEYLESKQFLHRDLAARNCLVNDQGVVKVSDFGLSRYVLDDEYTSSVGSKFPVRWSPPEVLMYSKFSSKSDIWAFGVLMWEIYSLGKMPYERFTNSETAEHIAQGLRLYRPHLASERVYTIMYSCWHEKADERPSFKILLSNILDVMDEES
Property label: Mouse Bone Marrow (%) (% remaining BTK, vehicle versus treated)

Please review the following examples before continuing.
>  <Compound>
Cc1cc(-c2cc(Nc3ccc(N4CCN(CCc5ccc(N6CCC(=O)NC6=O)cc5)CC4(C)C)cn3)ncn2)ccc1[C@@H](C)NC(=O)c1nc(C(C)(C)C)no1 [Example 9]

>  <Endpoint value>
31

$$$$
>  <Compound>
Cc1cc(-c2cc(Nc3ccc(N4CCN(CCc5ccc(N6CCC(=O)NC6=O)cc5)C[C@H]4C)cn3)ncn2)ccc1[C@@H](C)NC(=O)c1nc(C(C)(C)C)no1 [Example 2]

>  <Endpoint value>
12

$$$$
>  <Compound>
CC[C@H]1CN(CCc2ccc(N3CCC(=O)NC3=O)cc2)CCN1c1ccc(Nc2cc(-c3ccc([C@@H](C)NC(=O)c4nc(C(C)(C)C)no4)c(C)c3)ncn2)nc1 [Example 6]

>  <Endpoint value>
19

$$$$
>  <Compound>
Cc1cc(-c2cc(Nc3ccc(CCN4CCN(c5ccc(N6CCC(=O)NC6=O)cc5)CC4)cn3)ncn2)ccc1[C@@H](C)NC(=O)c1nc(C(C)(C)C)no1 [Example 19]

>  <Endpoint value>
51

$$$$
>  <Compound>
Cc1cc(-c2cc(Nc3ccc(N4CCN(CCc5ccc(N6CCC(=O)NC6=O)cc5)CC4)cn3)ncn2)c(F)cc1[C@@H](C)NC(=O)c1nc(C(C)(C)C)no1 [Example 12]

>  <Endpoint value>
17

$$$$

A = Cc1cc(-c2cc(Nc3ccc(N4CCN(CCc5ccc(N6CCC(=O)NC6=O)cc5)C[C@@H]4C(C)C)cn3)ncn2)ccc1[C@@H](C)NC(=O)c1nc(C(C)(C)C)no1 [Example 13]
B = Cc1cc(-c2cc(Nc3ccc(N4CCN(CCc5ccc(N6CCC(=O)NC6=O)c(F)c5)C[C@H]4C)cn3)ncn2)ccc1[C@@H](C)NC(=O)c1nc(C(C)(C)C)no1 [Example 5]
// returns A or B , whichever has the lower Mouse Bone Marrow (%) (% remaining BTK, vehicle versus treated) # reply format: chosen label
B

I = Cc1cc(-c2cc(Nc3ccc(N4CCN(CCc5ccc(N6CCC(=O)NC6=O)cc5)C[C@@H]4C)cc3)ncn2)ccc1[C@@H](C)NC(=O)c1nc(C(C)(C)C)no1 [Example 18]
II = Cc1cc(-c2cc(Nc3ccc(N4CCN(CCc5ccc(N6CCC(=O)NC6=O)c(F)c5)C[C@@H]4C)cn3)ncn2)ccc1[C@@H](C)NC(=O)c1nc(C(C)(C)C)no1 [Example 4]
Returns: the argument ( I or II ) having the larger Mouse Bone Marrow (%) (% remaining BTK, vehicle versus treated). # reply format: chosen label
I
(I: 25%, II: 13%)

A = Cc1c([C@@H](C)NC(=O)c2nc(C(C)(C)C)no2)ccc(-c2cc(Nc3ccc(N4CCN(CCc5ccc(N6CCC(=O)NC6=O)cc5)C[C@@H]4C)cn3)ncn2)c1F [Example 10]
B = Cc1c([C@@H](C)NC(=O)c2nc(C(C)(C)C)no2)ccc(-c2cc(Nc3ccc(N4CCN(CCc5ccc(N6CCC(=O)NC6=O)cc5)CC4)cn3)ncn2)c1F [Example 11]
Returns: the argument ( A or B ) having the larger Mouse Bone Marrow (%) (% remaining BTK, vehicle versus treated). # reply format: chosen label
B
(B: 29%, A: 9%)

// data source = patent US12172992B2
